- Assay Target: Beta-2 adrenergic receptor (Homo sapiens, UniProt P07550)
- Sequence (P07550 whole entry): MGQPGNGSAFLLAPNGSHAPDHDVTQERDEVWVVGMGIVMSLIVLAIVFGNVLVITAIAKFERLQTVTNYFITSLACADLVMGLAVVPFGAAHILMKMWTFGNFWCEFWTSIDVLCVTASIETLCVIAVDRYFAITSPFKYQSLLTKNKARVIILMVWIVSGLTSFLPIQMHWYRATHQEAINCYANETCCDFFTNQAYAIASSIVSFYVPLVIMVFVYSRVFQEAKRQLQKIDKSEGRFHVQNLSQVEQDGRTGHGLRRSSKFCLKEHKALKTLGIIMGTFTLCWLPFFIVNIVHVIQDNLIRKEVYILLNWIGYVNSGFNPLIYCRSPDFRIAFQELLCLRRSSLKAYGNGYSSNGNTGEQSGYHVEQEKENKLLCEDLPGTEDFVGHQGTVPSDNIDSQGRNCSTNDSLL
Endpoint: pKi
Quick note: pKi means taking -log10 of the concentration in moles per liter.

Field pKi (Beta-2 adrenergic receptor (Homo sapiens, UniProt P07550)), entry NC1=NC2(CCc3ccccc3C2)CO1 (stereo unspecified) : 6.00

* * *

- Assay Target: UniProt:P35368
- Sequence (P35368 whole entry): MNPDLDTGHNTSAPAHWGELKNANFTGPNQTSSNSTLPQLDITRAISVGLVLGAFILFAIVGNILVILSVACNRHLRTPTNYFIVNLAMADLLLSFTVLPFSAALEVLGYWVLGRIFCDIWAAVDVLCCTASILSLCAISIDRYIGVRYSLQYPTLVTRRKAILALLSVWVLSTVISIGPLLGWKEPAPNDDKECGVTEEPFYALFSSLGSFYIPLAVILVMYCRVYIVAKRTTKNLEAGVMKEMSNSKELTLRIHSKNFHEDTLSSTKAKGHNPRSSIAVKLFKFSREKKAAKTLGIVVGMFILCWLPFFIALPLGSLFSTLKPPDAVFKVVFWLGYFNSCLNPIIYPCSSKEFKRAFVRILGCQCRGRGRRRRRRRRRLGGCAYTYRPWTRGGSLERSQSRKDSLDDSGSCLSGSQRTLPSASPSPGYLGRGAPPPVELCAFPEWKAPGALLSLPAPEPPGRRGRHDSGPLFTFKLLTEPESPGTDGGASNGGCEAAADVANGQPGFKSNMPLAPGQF
Endpoint: Ki

Field Ki (UniProt:P35368), entry Cc1cccc([C@@H](C)c2cnc[nH]2)c1C : 316 nM

* * *

- Assay Target: Alpha-2C adrenergic receptor (Rattus norvegicus, UniProt P22086)
- Sequence (P22086 whole entry): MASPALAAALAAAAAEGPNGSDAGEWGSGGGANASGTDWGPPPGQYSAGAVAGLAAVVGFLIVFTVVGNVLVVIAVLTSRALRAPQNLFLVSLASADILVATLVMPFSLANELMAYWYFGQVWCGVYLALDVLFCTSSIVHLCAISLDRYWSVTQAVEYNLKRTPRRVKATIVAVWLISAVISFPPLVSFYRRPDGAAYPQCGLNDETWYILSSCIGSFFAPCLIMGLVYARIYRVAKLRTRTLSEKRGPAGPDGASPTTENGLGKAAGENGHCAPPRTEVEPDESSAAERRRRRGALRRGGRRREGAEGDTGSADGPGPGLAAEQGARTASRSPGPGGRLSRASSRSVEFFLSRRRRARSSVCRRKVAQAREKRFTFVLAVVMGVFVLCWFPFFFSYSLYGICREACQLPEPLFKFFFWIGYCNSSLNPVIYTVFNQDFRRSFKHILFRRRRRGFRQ
Quick list: Ki per entry.
Give the value in nM but do not write nM after it.

Cc1cccc([C@@H](C)c2cnc[nH]2)c1C : 1

Next item in the queue.
GET /value?item= NC1=NC2(CCc3ccccc3C2)CO1 (configuration not stated) &field=Ki returns 0.159

* * *

- Assay Target: Alpha-1B adrenergic receptor (Rattus norvegicus)
- Sequence (P15823 whole entry): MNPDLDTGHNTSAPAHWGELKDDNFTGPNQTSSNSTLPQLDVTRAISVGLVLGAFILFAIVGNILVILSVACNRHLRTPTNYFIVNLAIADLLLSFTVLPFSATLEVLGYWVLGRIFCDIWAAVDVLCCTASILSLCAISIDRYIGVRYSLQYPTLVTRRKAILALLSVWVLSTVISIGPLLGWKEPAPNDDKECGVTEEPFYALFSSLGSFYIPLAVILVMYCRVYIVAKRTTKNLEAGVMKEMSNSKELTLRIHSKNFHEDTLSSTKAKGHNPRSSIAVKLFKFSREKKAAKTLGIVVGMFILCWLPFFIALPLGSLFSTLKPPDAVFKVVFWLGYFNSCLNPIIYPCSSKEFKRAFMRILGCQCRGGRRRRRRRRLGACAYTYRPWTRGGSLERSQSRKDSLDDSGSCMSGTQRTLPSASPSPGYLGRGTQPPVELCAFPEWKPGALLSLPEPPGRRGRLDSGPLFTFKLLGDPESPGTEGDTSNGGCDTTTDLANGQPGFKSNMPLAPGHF
Endpoint: Ki (nM)
Give the value in nM but do not write nM after it.

Field Ki (Alpha-1B adrenergic receptor (Rattus norvegicus)), entry Cc1cccc([C@@H](C)c2cnc[nH]2)c1C : 316

* * *

- Assay Target: UniProt:P35348
- Sequence (P35348 whole entry): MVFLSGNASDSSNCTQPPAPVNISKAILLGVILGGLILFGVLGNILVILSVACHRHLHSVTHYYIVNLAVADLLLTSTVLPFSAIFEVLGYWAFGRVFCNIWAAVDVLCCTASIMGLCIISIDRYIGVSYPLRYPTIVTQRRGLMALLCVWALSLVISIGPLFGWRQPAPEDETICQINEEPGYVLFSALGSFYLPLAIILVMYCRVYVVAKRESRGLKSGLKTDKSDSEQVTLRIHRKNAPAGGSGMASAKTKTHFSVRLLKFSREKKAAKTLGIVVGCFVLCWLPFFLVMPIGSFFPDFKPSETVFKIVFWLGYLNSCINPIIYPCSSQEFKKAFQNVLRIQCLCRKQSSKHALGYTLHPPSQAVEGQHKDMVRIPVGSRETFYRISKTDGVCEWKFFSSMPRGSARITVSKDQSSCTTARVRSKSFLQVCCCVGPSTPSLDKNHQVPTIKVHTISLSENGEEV
Endpoint: Ki

GET /value?item= Cc1cccc([C@@H](C)c2cnc[nH]2)c1C &field=Ki returns 200 nM

* * *

Measured Ki (Amine oxidase [flavin-containing] B (Rattus norvegicus, UniProt P19643))
Give the value in nM but do not write nM after it.

Clc1cccc(Cl)c1N=C1NCCN1 : 1000

Next item in the queue.
Field Ki (Amine oxidase [flavin-containing] B (Rattus norvegicus, UniProt P19643)), entry Cc1cccc([C@@H](C)c2cnc[nH]2)c1C : 1000
